Data origin, for the record: the supplement of paper PMC7877785

test: self-splicing fitness, log relative to wild type (ln ratio); higher = more splicing; Tetrahymena group I intron in knt gene, E. coli kanamycin selection, DiMSum; sequences stand for … in CUCUCU…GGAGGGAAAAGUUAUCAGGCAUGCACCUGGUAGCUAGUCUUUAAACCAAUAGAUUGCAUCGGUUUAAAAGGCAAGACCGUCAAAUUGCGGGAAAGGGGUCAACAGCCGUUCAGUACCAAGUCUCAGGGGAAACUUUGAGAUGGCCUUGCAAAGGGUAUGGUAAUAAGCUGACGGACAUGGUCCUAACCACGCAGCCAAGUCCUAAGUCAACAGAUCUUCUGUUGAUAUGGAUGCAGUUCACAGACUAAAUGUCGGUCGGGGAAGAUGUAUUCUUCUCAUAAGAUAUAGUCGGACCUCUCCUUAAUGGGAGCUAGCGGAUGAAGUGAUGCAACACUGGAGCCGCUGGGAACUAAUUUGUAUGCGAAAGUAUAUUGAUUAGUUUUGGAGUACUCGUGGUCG; settings: 30 °C;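 note: selection with 25 µg/mL kanamycin versus none on LB agar overnight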
Parameter threshold = -0.2. Response is 1 (yes) when self-splicing fitness (ln) meets or exceeds it, else 0 (no).

sequence_content=GUCGAGCAAUAUUACGUGCA class_name="0 (no)"
sequence_content=CGGGAGCAAUAUUACGACUG class_name="0 (no)"
sequence_content=CGCUAGCAAUAUUACGUCGU class_name="0 (no)"
sequence_content=UUAAAGCAAUAUUACGACUC class_name="1 (yes)"
sequence_content=CGGUAGCAAUAUUACGGCAG class_name="1 (yes)"
sequence_content=GAAUAGCAAUAUUACGAAAA class_name="0 (no)"
sequence_content=UUGCAGCAAUAUUACGCCCU class_name="1 (yes)"
